Target: Thyrotropin-releasing hormone receptor (Homo sapiens)
Assay: qHTS for Small Molecule Agonists and Allosteric Enhancers of Human TRH Receptor: Primary Screen for Enhancers; further: 0% is about no effect
Conditions: TRHR cells, fluo-8 calcium fluorescence, EC20 TRH enhancement; at 2 µM
Hit rate of the full screen: of about 360,000 compounds, about 2,400 (0.67%) were called active. No stated cut-off is given here; in the data, active means enhancement above about 30%; inactive means the rest. The list comes from a sample in which actives are over-represented; it also holds close analogues and randomly drawn compounds.
Outcomes you can answer with include only these: active, inactive

Solved entries (count: 5):
- Molecule: "CCCNC(=O)CCc1c(C)nc2c(c(C)nn2-c2ccc(C)cc2)c1C"
  Discrete label: "inactive"
- Molecule: "CCOc1ccc(CNC(=O)c2cc(-c3ccc(Cl)s3)nc3ccccc23)cc1"
  Discrete label: "inactive"
- Molecule: "CC(CCc1ccccc1)NC(=O)c1cnc(Cl)c(Cl)c1 (stereo unspecified)"
  Discrete label: "inactive"
- Molecule: "CC1=C(C)CC(C(=O)NC(C)CCc2ccccc2)C(C(=O)O)C1 (stereo unspecified)"
  Discrete label: "active"
- Molecule: "CCN(CC)S(=O)(=O)N1CCC(C(=O)NC(C)CCc2ccccc2)CC1 (stereo unspecified)"
  Discrete label: "inactive"

Look up the recorded call for Cc1cccc(N2CCN(C(=O)CN(C)S(=O)(=O)c3ccc4c(c3)CCC(=O)N4)CC2)c1C in this test.
inactive

Look up the recorded call for COc1cc(OC)cc(C(=O)NCCc2csc3nc(-c4ccccc4F)nn23)c1 in this test.
inactive

* * *

Molecular target: Thyrotropin-releasing hormone receptor (Homo sapiens)
Test: qHTS for Small Molecule Agonists and Allosteric Enhancers of Human TRH Receptor: Primary Screen for Enhancers; further: 0% is about no effect
Details: TRHR cells, fluo-8 calcium fluorescence, EC20 TRH enhancement; at 2 µM; hits give high values
Out of some 360,000 compounds screened, about 2,400 (0.67%) were called active. The entries come from a sample that favours actives as a whole.
The reader will find reported enhancement values listed item by item below.
Report the figure in % without appending any unit label.

Per the record, CCCN(CCC)CCCNC(=O)Cn1ncc2c3ccccc3n(Cc3ccccc3)c2c1=O has enhancement of 3.33

Per the record, COc1ccc(C2(C)ON(c3ccccc3C(F)(F)F)C2=O)cc1 (centres undefined) has enhancement of 35

Per the record, CC(C(=O)N(C)CC(=O)Nc1ccccc1C(F)(F)F)N1C(=O)c2ccccc2C1=O (centres undefined) has enhancement of 35.3

* * *

Molecular target: Thyrotropin-releasing hormone receptor (Homo sapiens) (UniProt P34981)
Sequence (P34981 whole entry, looked up): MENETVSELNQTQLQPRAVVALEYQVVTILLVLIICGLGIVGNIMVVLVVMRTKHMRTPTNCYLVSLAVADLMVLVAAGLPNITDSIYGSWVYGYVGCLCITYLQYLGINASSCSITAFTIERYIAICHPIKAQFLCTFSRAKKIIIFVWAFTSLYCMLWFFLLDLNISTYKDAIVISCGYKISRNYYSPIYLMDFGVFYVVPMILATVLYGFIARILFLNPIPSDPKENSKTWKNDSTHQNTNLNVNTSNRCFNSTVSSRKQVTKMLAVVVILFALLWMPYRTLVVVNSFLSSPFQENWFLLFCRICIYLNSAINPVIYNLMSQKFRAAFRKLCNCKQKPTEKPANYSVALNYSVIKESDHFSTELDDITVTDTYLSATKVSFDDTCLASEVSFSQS
Assay: qHTS for Small Molecule Agonists and Allosteric Enhancers of Human TRH Receptor: Primary Screen for Enhancers; further: 0% is about no effect
Details: TRHR cells, fluo-8 calcium fluorescence, EC20 TRH enhancement; at 2 µM; hits give high values
Among all 360,000 compounds or so, about 2,400 (0.67%) were called active. Only a selection was taken, and actives are over-represented in it overall.
Recorded metric: enhancement (%)
Report the figure in % without appending any unit label.

Some solved cases for reference:
- Compound: "COc1ccc(NC(=O)C2CCN(c3ccc(Sc4ccc(C)cc4)nn3)CC2)c(OC)c1"
  Tested target: "Thyrotropin-releasing hormone receptor (Homo sapiens) (UniProt P34981)"
  Unit label: "%"
  enhancement: 7.96
- Compound: "COc1ccc(-c2cc(C(=O)Nc3sc4c(c3C(N)=O)CCCC4)no2)cc1"
  Tested target: "Thyrotropin-releasing hormone receptor (Homo sapiens) (UniProt P34981)"
  Unit label: "%"
  enhancement: 10.2
- Compound: "CC(=O)c1cccc(NC(=O)CSc2nc3c(c(=O)[nH]2)CCC3)c1"
  Tested target: "Thyrotropin-releasing hormone receptor (Homo sapiens) (UniProt P34981)"
  Unit label: "%"
  enhancement: -3.58
- Compound: "COc1ccc(NC(=O)CSc2nc(C)cs2)cc1"
  Tested target: "Thyrotropin-releasing hormone receptor (Homo sapiens) (UniProt P34981)"
  Unit label: "%"
  enhancement: 33.7
- Compound: "COc1ccc(-c2[nH]c3c(c2-c2c(-n4cccc4)n(C)c(=O)n(C)c2=O)c(=O)n(C)c(=O)n3C)cc1"
  Tested target: "Thyrotropin-releasing hormone receptor (Homo sapiens) (UniProt P34981)"
  Unit label: "%"
  enhancement: 31.9

Proceed to the following item.
Per the record, CCc1nn(CC(=O)N2CCN(c3ccc(Cl)cc3)CC2)c(=O)c2cc3occc3n12 has enhancement of 3.41

* * *

Target: Thyrotropin-releasing hormone receptor (Homo sapiens)
Experiment: qHTS for Small Molecule Agonists and Allosteric Enhancers of Human TRH Receptor: Primary Screen for Enhancers; further: 0% is about no effect
Conditions: TRHR cells, fluo-8 calcium fluorescence, EC20 TRH enhancement; at 2 µM; hits give high values
In all, about 360,000 compounds went through this assay and about 2,400 (0.67%) were called active. The entries come from a sample that favours actives as a whole.
Recorded metric: enhancement (%)
Report the figure in % without appending any unit label.

Some solved cases for reference:
- Compound: "CC(=O)N1CCCc2cc(S(=O)(=O)N3CCC(C(=O)NCc4ccc(C)cc4)CC3)ccc21"
  Unit label: "%"
  enhancement: 4
- Compound: "C[N+](C)(C)CCNC(=O)c1cc[n+](Cc2ccccc2)c(/C=N/O)c1"
  Unit label: "%"
  enhancement: 40.4
- Compound: "CC(CCCc1ccccc1)NC(=O)c1nn(-c2ccc(Cl)cc2)nc1CO (configuration not stated)"
  Unit label: "%"
  enhancement: -3.71
- Compound: "CN(C)c1ccc(Nc2c3c4c(cccc4n(C)c2=O)C(=O)c2ccccc2-3)cc1"
  Unit label: "%"
  enhancement: 30.8
- Compound: "Cc1ccc(NC(=O)CCCn2c(=O)c3cccn3c3ccccc32)cc1Cl"
  Unit label: "%"
  enhancement: 1.3

Per the record, O=C(CC1SC(N2CCCC2)=NC1=O)Nc1ccc(C(=O)NCCc2ccc(F)cc2)cc1 (configuration not stated) has enhancement of 33.4

Per the record, Cc1ccc(C)c(OCC(=O)Nc2sc3c(c2C#N)CCCC3)c1C has enhancement of 0.637

Per the record, CCc1ccc(NC(=O)c2cc3c(=O)n(Cc4cccnc4)ccc3nc2C)cc1 has enhancement of 3.22

Per the record, CCOC(=O)c1ccc(COC(=O)CCc2nc(-c3ccccc3)c(-c3ccccc3)o2)cc1 has enhancement of 31.7

Per the record, CCOC(=O)c1c(-c2ccc(OC)cc2)oc2ccc(OCc3ccc(C(=O)OC)cc3)cc12 has enhancement of -1.96

Per the record, CCN(CC)c1cc(NC2CCCCC2)c2c3c(onc13)-c1ccccc1C2=O has enhancement of 3.4

Per the record, O=C(NCCCNCc1ccccc1)c1ccc(/C=N/O)nc1 has enhancement of 15.9

Per the record, O=C(Nc1n[nH]c(C(F)(F)F)n1)c1cccs1 has enhancement of -3.09

Per the record, Cc1ccccc1OCc1nc2c3cnn(-c4ccccc4F)c3ncn2n1 has enhancement of 8.56

Per the record, Cc1cc(C)c2oc(C(=O)Nc3ccc(S(=O)(=O)N4CCCCCC4)cc3)cc(=O)c2c1 has enhancement of 48.6

Per the record, N#Cc1c(N)nc2c3c(sc(=N)c2c1N)NC(=O)CC3c1ccccc1Cl (configuration not stated) has enhancement of 2.83

* * *

Target: Thyrotropin-releasing hormone receptor (Homo sapiens) (UniProt P34981)
Experiment: qHTS for Small Molecule Agonists and Allosteric Enhancers of Human TRH Receptor: Primary Screen for Enhancers; further: 0% is about no effect
Conditions: TRHR cells, fluo-8 calcium fluorescence, EC20 TRH enhancement; at 2 µM; hits give high values
Screen size: about 360,000 compounds; about 2,400 (0.67%) were called active. The entries come from a sample that favours actives as a whole.
Recorded metric: enhancement (%)
Report the figure in % without appending any unit label.

Some solved cases for reference:
- Compound: "O=C(CNC(=O)c1ccc(Cl)cc1Cl)NCC(=O)Nc1ccccc1N1CCOCC1"
  Unit label: "%"
  enhancement: 31.1
- Compound: "Cc1ccc(C)c(NC(=O)C2CCCN(S(=O)(=O)c3cn(C)cn3)C2)c1 (stereo not drawn)"
  Unit label: "%"
  enhancement: 12.8
- Compound: "Cc1ccc(Cl)cc1N1CCN(C(=O)c2cnc3c(-c4ccc(F)cc4)c(C)nn3c2C)CC1"
  Unit label: "%"
  enhancement: -2.73
- Compound: "COc1cc(OC)cc(C(=O)Nc2ccc3nc(Nc4cccc(C(F)(F)F)c4)cc(C)c3c2)c1"
  Unit label: "%"
  enhancement: -5.96
- Compound: "Cc1cc(Cl)ccc1OCC(=O)N(Cc1ccc(N(C)C)cc1)C1CCS(=O)(=O)C1 (stereo not drawn)"
  Unit label: "%"
  enhancement: -2.26

Response field enhancement (Thyrotropin-releasing hormone receptor (Homo sapiens) (UniProt P34981)) for item Cc1ccc(NC(=O)COC(=O)CNC(=O)c2ccc(Cl)cc2Cl)cc1S(=O)(=O)N1CCOCC1 : 1.95

* * *

Molecular target: Thyrotropin-releasing hormone receptor (Homo sapiens)
Assay: qHTS for Small Molecule Agonists and Allosteric Enhancers of Human TRH Receptor: Primary Screen for Enhancers; further: 0% is about no effect
Conditions: TRHR cells, fluo-8 calcium fluorescence, EC20 TRH enhancement; at 2 µM
About 2,400 (0.67%) of roughly 360,000 compounds were called active. Cut-off read from the data, not from the text of the source: active = enhancement above about 30%; inactive = the rest. The sample holds actives, similar compounds and a random draw of the others, so the mix is not that of the screen.
Outcomes you can answer with include only these: active, inactive

Solved entries (count: 5):
- Compound: "Cc1cc(-c2ccccc2)n2nc(C)c(-c3ccccc3)c2n1"
  Discrete label: "inactive"
- Compound: "CCCn1c2ccccc2c2cnn(CC(=O)NCCCOC(C)C)c(=O)c21"
  Discrete label: "inactive"
- Compound: "O=C(NCC(=O)N(CC1CCCO1)C(C(=O)NC1CCCCC1)c1ccccc1)c1ccco1 (stereo unspecified)"
  Discrete label: "active"
- Compound: "Oc1ccc(Cl)cc1C1C=C(c2ccc3c(c2)OCO3)NC(c2c(F)cccc2Cl)N1 (stereo unspecified)"
  Discrete label: "inactive"
- Compound: "COc1cccc(C(=O)NC2CCN(C#N)CC2)c1"
  Discrete label: "inactive"

Turning now to a further record.
Look up the recorded call for Cc1nnc(N2CCCC(C(=O)NCCN(C)C)C2)c2nn(-c3ccccc3)c(C)c12 (stereo unspecified) in this test.
inactive
